system: UACC-257; assay: NCI tumour cell line growth inhibition, 48 h
The source made the active and inactive calls. Rule as the data show it: active = GI50 up to about 1.1 µM and inactive = higher.
Form field: GI50 (one value per entry).

Query GI50 for O=C1CN(c2cccc(C(F)(F)F)c2)C(=O)CN1CCN1CC(=O)N(c2cccc(C(F)(F)F)c2)CC1=O > 100 µM (inactive)

Query GI50 for COC(=O)C(NC(=O)c1ccccc1)c1ccco1 (stereo not given) > 100 µM (inactive)

Query GI50 for CNc1nc(OC)c2c(n1)n(C)c[n+]2C > 100 µM (inactive)

Query GI50 for OCCNc1ncnc2[nH]cnc12 > 100 µM (inactive)

Query GI50 for O=C1NC(c2cccc(OCc3ccccc3)c2)Nc2ccccc21 (stereo not given) 1.36 µM (inactive)

----------
system: KM12; experiment: NCI tumour cell line growth inhibition, 48 h
Activity calls are given as the source filed them. No stated cut-off is given here; in the data, active = GI50 up to about 1.1 µM and inactive = higher.
property: GI50

>>> experimental_result("C=C1C[C@]23CC[C@@H]4C(CO)(CO)CC(=O)C[C@]4(C)[C@@H]2C(O)C[C@H]1C3 (some centres undefined)")
"> 100 µM (inactive)"
>>> experimental_result("O=C1Nc2ccccc2C12CCNC2Cc1ccccc1 (centres undefined)")
"> 100 µM (inactive)"
>>> experimental_result("BrC1=CN2C[n+]3cc(Br)c4ccccc4c3N=C2c2ccccc21")
"3.65 µM (inactive)"

--- query ---
Query GI50 for O=C(/C=C/c1ccc(OCCCCCCCCCCOc2ccc(/C=C/C(=O)c3ccc(Cl)cc3)cc2)cc1)c1ccc(Cl)cc1 > 100 µM (inactive)

----------
system: SN12C; assay: NCI tumour cell line growth inhibition, 48 h
Calls of active or inactive are those of the source. Rule as the data show it: active = GI50 up to about 1.1 µM and inactive = higher.
property: GI50

>>> experimental_result("O=C([C@H](O)[C@@H](O)c1ccc(Br)cc1)C12CC3CC(CC(C3)C1)C2")
"17.9 µM (inactive)"
>>> experimental_result("COC1=CC(=O)c2c(cc(COP(N)(=O)N(CCBr)CCBr)n2C)C1=O (stereo not drawn)")
"< 0.01 µM (active)"

--- query ---
Give GI50 for Nc1ccccc1OCc1cc(=O)c(OCc2ccccc2)co1 tested on SN12C. 0.214 µM (active)

----------
system: MDA-MB-231; test: NCI tumour cell line growth inhibition, 48 h
The source made the active and inactive calls. Rule as the data show it: active = GI50 up to about 1.1 µM and inactive = higher.
Could you please pick one outcome from this set? True = active, False = inactive

>>> category_label("CC1(C)C2CCC1(C)C(NC(=O)COCCOCC(N)=O)C2 (configuration not stated)")
"False"
>>> category_label("CC1(C)C(C#N)=[N+]([O-])C(C)(C)N1O")
"False"
>>> category_label("COc1ccc2c(c1)c(=O)c1c(NCCN(C)C)ccc3c(=O)n(CCN(C)C)c(=O)n2c31")
"True"
>>> category_label("C=CCOC(OCC=C)/C(Br)=C/C")
"False"
>>> category_label("COc1ccccc1-c1cc(O)c2c(C)ccnc2n1")
"False"

Give the logged outcome of this assay for the following molecule: O=C(OCc1ccccc1)N1CCN(C(=O)OCc2ccccc2)CCN(C(=O)OCc2ccccc2)CCN(C(=O)OCc2ccccc2)CCN(C(=O)OCc2ccccc2)CC1 False

Give the logged outcome of this assay for the following molecule: C[N+](C)(N)CCC[N+](C)(C)N False

----------
system: IGROV-1; test: NCI tumour cell line growth inhibition, 48 h
Active and inactive are the calls of the source. Cut-off read from the data, not from the text of the source: active = GI50 up to about 1.1 µM and inactive = higher.
Form field: GI50 (one value per entry).

>>> experimental_result("CCC(=O)c1c(NOC2OC(COC(C)=O)C(OC(C)=O)C(OC(C)=O)C2OC(C)=O)nc(OC)n(C)c1=O (stereo not given)")
"> 100 µM (inactive)"
>>> experimental_result("CCOC(=O)c1cc(-c2ccc(OC)cc2)c([N+](=O)[O-])[nH]1")
"> 10 µM (inactive)"

--- query ---
Query GI50 for O=S(=O)(O)c1ccc(/N=N\c2c(O)ccc3cc(Br)ccc23)cc1 > 100 µM (inactive)

----------
tested on: SNB-75; assay: NCI tumour cell line growth inhibition, 48 h
The source made the active and inactive calls. Cut-off read from the data, not from the text of the source: active = GI50 up to about 1.1 µM and inactive = higher.
Could you please pick one outcome from this set? active, inactive

>>> category_label("O=c1c(F)cn2c(=O)n1CCCCCCCn1c(=O)c(F)cn(c1=O)CCCCCCC2")
"active"
>>> category_label("CN1CCN(c2n[nH]c(=O)c3c2nnn3Cc2ccccc2)CC1")
"inactive"
>>> category_label("Clc1cccc(Cl)c1/C=N/C12CC3CC(CC(C3)C1)C2")
"inactive"
>>> category_label("COc1ccc2c(c1)C(=O)c1ccccc1C2")
"inactive"
>>> category_label("ClCCN1CCOC1=C1C=CC=C1")
"inactive"
>>> category_label("COc1ccc(N[C@H](C[S+]([O-])c2ccc(C)cc2)C(F)(F)F)cc1 (some centres not stated)")
"inactive"

Give the logged outcome of this assay for the following compound: CC(=O)C1(O)CCC2(O)C3(O)CC=C4CC(O)CCC4(C)C3CC(OC(=O)c3ccc(O)cc3)C12C (configuration not stated) inactive

Give the logged outcome of this assay for the following compound: COc1ccc2c(c1)CCN=C2c1ccccc1CCCCl inactive

Give the logged outcome of this assay for the following compound: CC1CN=C(N(C(=O)Nc2ccc(F)c(Cl)c2)c2ccccc2)S1 (configuration not stated) inactive

Give the logged outcome of this assay for the following compound: CCOC(CN(C)C(=S)Nc1cccc2ccccc12)OCC inactive

Give the logged outcome of this assay for the following compound: CN(C)C(=S)Nc1nnc(Nc2ccccc2)s1 inactive

Give the logged outcome of this assay for the following compound: O=C(c1ccccc1)N1C2C3CC(OCc4ccccc4)(OCc4ccccc4)C(O3)C21 (configuration not stated) inactive

Give the logged outcome of this assay for the following compound: O=c1cc(-c2cccnc2)[nH]c2cc3c(cc12)OCO3 inactive

Give the logged outcome of this assay for the following compound: CC(=O)c1ccc(NC(=O)C(=O)C(C(=O)/C=C/c2ccccc2)C2OC(=O)c3ccccc32)cc1 (configuration not stated) inactive

Give the logged outcome of this assay for the following compound: COC(CN(C)C(=O)C(C)NC(=O)c1ccccc1)OC (configuration not stated) inactive

Give the logged outcome of this assay for the following compound: C/C(=N\Nc1nc2cc(F)ccc2s1)c1ccccn1 active

Give the logged outcome of this assay for the following compound: c1ccc(SC23C4C5C6C4C2C6C53)nc1 (configuration not stated) inactive

Give the logged outcome of this assay for the following compound: COc1ccc2c(c1)C(N)=C(Cc1ccncc1)C2=O inactive

Give the logged outcome of this assay for the following compound: C#CCC(N)(CO)C(=O)O (configuration not stated) inactive

Give the logged outcome of this assay for the following compound: CNc1nc(=O)c(C#N)c(-c2ccc(C)cc2)s1 inactive

Give the logged outcome of this assay for the following compound: COc1ccc(C2S/C(=C\c3ccc([N+](=O)[O-])cc3)C(=O)N2NC(=O)Cc2ccccc2)cc1 (configuration not stated) inactive

Give the logged outcome of this assay for the following compound: O=C(Nc1nc2ccccc2n1Cc1ccccc1)NC12CC3CC(CC(C3)C1)C2 inactive

----------
test system: SK-MEL-2; assay: NCI tumour cell line growth inhibition, 48 h
Calls of active or inactive are those of the source. No stated cut-off is given here; in the data, active = GI50 up to about 1.1 µM and inactive = higher.
Form field: GI50 (one value per entry).

>>> experimental_result("Cc1cccc(NC(=S)N/N=C(/c2ccccc2)c2ccccn2)c1")
"2.49 µM (inactive)"

Query GI50 for CN(C)C(=S)Nc1nnc(Nc2ccccc2)s1 > 100 µM (inactive)

----------
system: UACC-62; test: NCI tumour cell line growth inhibition, 48 h
Activity calls are given as the source filed them. Cut-off read from the data, not from the text of the source: active = GI50 up to about 1.1 µM and inactive = higher.
property: GI50

>>> experimental_result("COc1ccc(C2S/C(=C\\c3ccc([N+](=O)[O-])cc3)C(=O)N2NC(=O)Cc2ccccc2)cc1 (centres undefined)")
"85.9 µM (inactive)"

Query GI50 for CSc1nc(-c2ccccc2)c2c(n1)-c1ccccc1CC2 > 100 µM (inactive)

Query GI50 for CC(C)(O)[C@@H]1CCC(C)([C@H]2[C@@H](O)CC3(C)C4CC(OC5OC(CO)C(O)C(O)C5O)C5C(C)(C)[C@@H](OC6OCC(O)C(O)C6O)CC[C@@]56C[C@@]46CC[C@]23C)O1 (some centres undefined) > 100 µM (inactive)

Query GI50 for CC(/C=N/N(C)C1=NCCCCN1)=N/N(C)C1=NCCCCN1 > 100 µM (inactive)

Query GI50 for Cn1c(=O)c(C(=O)NC(=O)NCCCCCOC(=O)CCCCCCCCCCC(=O)OCCCCCNC(=O)NC(=O)c2cn(Cc3ccccc3)c(=O)n(C)c2=O)cn(Cc2ccccc2)c1=O > 100 µM (inactive)

Query GI50 for C[N+](C)(N)CCC[N+](C)(C)N > 100 µM (inactive)

----------
tested on: RPMI-8226; test: NCI tumour cell line growth inhibition, 48 h
Active and inactive are the calls of the source. Cut-off read from the data, not from the text of the source: active = GI50 up to about 1.1 µM and inactive = higher.
Could you please pick one outcome from this set? active, inactive

>>> category_label("Cn1nc(-c2ccccc2)c(C(=O)/C=C/c2ccc(Cl)cc2)c(N2CCCC2)c1=O")
"inactive"

Give the logged outcome of this assay for the following compound: COc1cc(/C=c2/c3ccccc3n3c2cc(-c2ccccc2)[n+]3C)cc(OC)c1OC inactive

Give the logged outcome of this assay for the following compound: c1ccc2c(c1)nnn2C1CCCCO1 (stereo not given) inactive

Give the logged outcome of this assay for the following compound: C=C(C)C(=O)CC[C@@H](C)[C@H]1[C@@H](OC2OC(CO)C(O)C(O)C2O)C[C@@]2(C)[C@@H]3C[C@H](O)C4C(C)(C)[C@@H](OC5OC(CO)C(O)C(O)C5O)CC[C@@]45C[C@@]35CC[C@]12C (stereo not given in full) inactive

Give the logged outcome of this assay for the following compound: O=C(/C=C/c1ccc(OCCCCCCCCCCOc2ccc(/C=C/C(=O)c3ccc(Cl)cc3)cc2)cc1)c1ccc(Cl)cc1 inactive

Give the logged outcome of this assay for the following compound: C/C(=N\Nc1nc2cc(F)ccc2s1)c1ccccn1 active

Give the logged outcome of this assay for the following compound: COc1ccc2c(c1)C(=O)c1ccccc1C2 inactive
